Test system: K. pneumoniae 200047 (TEM-1, SHV-32, CTX-M-15, OXA-1)
Test: MIC of compounds alone, broth microdilution
Type: cell-based
Conditions: Klebsiella pneumoniae, read-out: MIC compounds of the invention alone
experimental.readout: MIC (µg/mL)
The figure you give is taken to be in µg/mL; do not add the unit.

Request: Return value of MIC for input O=C1N2CC(c3ccncc3)=CC(C2)N1OS(=O)(=O)[O-].[Na+] (centres unmarked) [Example 33] , no commentary.
Response: 8

Request: Return value of MIC for input O=C1N2CC(c3ncco3)=C[C@H](C2)N1OS(=O)(=O)[O-].[Na+] [Example 44] , no commentary.
Response: 1

Request: Return value of MIC for input O=C1N2CC(c3ncco3)=CC(C2)N1OS(=O)(=O)[O-].[Na+] (centres unmarked) [Example 25] , no commentary.
Response: 2

Request: Return value of MIC for input O=C1N2CC=C(c3cnoc3)C(C2)N1OC(F)(F)C(=O)[O-].[Li+] (centres unmarked) [Example 6] , no commentary.
Response: 32

###

Target: OXA-15 (Pseudomonas aeruginosa)
Construct: made in house; host or cells: E. coli
Sequence (Q51574 22-275): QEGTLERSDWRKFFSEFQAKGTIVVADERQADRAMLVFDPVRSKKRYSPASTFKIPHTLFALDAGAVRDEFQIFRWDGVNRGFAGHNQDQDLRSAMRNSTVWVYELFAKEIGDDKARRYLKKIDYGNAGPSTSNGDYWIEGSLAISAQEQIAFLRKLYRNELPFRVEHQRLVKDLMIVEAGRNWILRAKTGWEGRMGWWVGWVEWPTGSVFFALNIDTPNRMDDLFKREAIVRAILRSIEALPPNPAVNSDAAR
Assay: biochemical
Give pIC50 for every item shown.
Remember, pIC50 is on a log scale: it is -log10 of the molar concentration.

Request: Return value of pIC50 for input O=C1N2CC(c3ncon3)=CC(C2)N1OS(=O)(=O)[O-].[Na+] (centres unmarked) [Example 36, sulfate] , no commentary.
Response: 6.18

Request: Return value of pIC50 for input COc1ncc(C2=CC3CN(C2)C(=O)N3OS(=O)(=O)[O-])s1.[Na+] (centres unmarked) [Example 39, sulfate] , no commentary.
Response: 7.10

Request: Return value of pIC50 for input O=C1N2CC=C(c3cnsc3)C(C2)N1OS(=O)(=O)[O-].[Na+] (centres unmarked) [Example 29, sulfate] , no commentary.
Response: 7.04

Request: Return value of pIC50 for input Cn1cc(C2=CCN3CC2N(OS(=O)(=O)[O-])C3=O)c(=O)n(C)c1=O.[Na+] (centres unmarked) [Example 23, sulfate] , no commentary.
Response: 6.96

Request: Return value of pIC50 for input O=C1N2CC(c3cnco3)=CC(C2)N1OS(=O)(=O)[O-].[Na+] (centres unmarked) [Example 35] , no commentary.
Response: 7.13

Request: Return value of pIC50 for input NCc1cnc(C2=CC3CN(C2)C(=O)N3OS(=O)(=O)O)s1 (centres unmarked) [Example 38] , no commentary.
Response: 6.55

Request: Return value of pIC50 for input O=C1N2CC(c3ccccn3)=CC(C2)N1OS(=O)(=O)[O-].[Na+] (centres unmarked) [Example 42] , no commentary.
Response: 6.43

Request: Return value of pIC50 for input O=C1N2CC=C(c3cnoc3)C(C2)N1OS(=O)(=O)[O-].[Na+] (centres unmarked) [Example 5, sulfate] , no commentary.
Response: 7.03

###

Test system: E. coli UFR41 (TEM-1, CTX-M-15, CMY-2, OXA-1, NDM-4)
Assay: MIC of compounds alone, broth microdilution
Type: cell-based
Conditions: Escherichia coli, read-out: MIC compounds of the invention alone
experimental.readout: MIC (µg/mL)
The figure you give is taken to be in µg/mL; do not add the unit.

Request: Return value of MIC for input NCc1cnc(C2=CC3CN(C2)C(=O)N3OS(=O)(=O)O)s1 (stereo not drawn) , no commentary.
Response: 1

Request: Return value of MIC for input O=C1N2CC(c3ncco3)=C[C@H](C2)N1OS(=O)(=O)[O-].[Na+] , no commentary.
Response: 4

Request: Return value of MIC for input O=C1N2CC(c3ncco3)=CC(C2)N1OS(=O)(=O)[O-].[Na+] (stereo not drawn) , no commentary.
Response: 16

Request: Return value of MIC for input O=C1N2CC(c3ncco3)=C[C@H](C2)N1OC(F)(F)C(=O)O (racemic) , no commentary.
Response: 16
